These measurements were taken from ChEMBL document CHEMBL1909046.

Assay: DRUGMATRIX: Sodium/nucleoside co-transporter radioligand binding (ligand: nitrobenzylthioinosine)
Assay type: cell membranes, Cavia porcellus, Dunkin-Hartley, Cerebral cortex, Membrane
Conditions: Not Active = under 50% inhibition at 10 µM
property.name: IC50

Here are 5 molecules together with their reported answers.
molecule	IC50
CC(C)(C)NC[C@H](O)COc1cccc2c1CCCC2=O	Not Active
C=CCc1ccc2c(c1)OCO2	Not Active
O=C1CC[C@@]2(O)[C@H]3Cc4ccc(O)c5c4[C@@]2(CCN3CC2CC2)[C@H]1O5 [NALTREXONE]	Not Active
CC(N)Cc1c[nH]c2ccc(OCc3cccs3)cc12 (stereo not drawn)	Not Active
NC(=O)NC(=O)Cc1ccccc1 [PHENACEMIDE]	Not Active

What value of IC50 has been reported for the following molecule? "Oc1ncnc2[nH]ncc12"
Not Active
